Catalogue of pIC50 values
TESTED_TARGET: Jurkat cells expressing CXCR4 (Homo sapiens)
Construct: endogenous in cells; host or cells: Jurkat
Sequence (P61073 whole entry): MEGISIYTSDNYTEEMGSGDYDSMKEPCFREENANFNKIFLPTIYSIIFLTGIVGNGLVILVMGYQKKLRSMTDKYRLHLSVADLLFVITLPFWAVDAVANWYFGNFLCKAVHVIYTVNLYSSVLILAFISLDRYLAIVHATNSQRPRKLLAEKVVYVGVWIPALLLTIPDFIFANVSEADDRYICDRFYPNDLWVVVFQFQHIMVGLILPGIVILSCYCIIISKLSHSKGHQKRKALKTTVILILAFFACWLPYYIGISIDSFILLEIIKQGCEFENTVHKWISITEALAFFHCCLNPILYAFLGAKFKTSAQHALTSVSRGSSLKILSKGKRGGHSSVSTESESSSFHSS
EXPERIMENTAL_DETAILS: Chemokine (CXCL12-AF647) binding inhibition assay
DETAILS: CXCL12-AF647 25 ng/mL, read-out: IC50 CXCL-12 binding Jurkat
pIC50: −log10 of the molar value.

Answered examples (2):
1. Cc1cccnc1[C@@H]1CCC[C@H](c2nc3cccc(Oc4ccncc4)c3[nH]2)N1C    ≤ 6.00
2. Cc1c(Cl)ccnc1[C@@H]1CCC[C@H](c2nc3cccc(N4CCN(C)CC4)c3[nH]2)N1    7.00 to 11.00

Retrieve pIC50 measured for CN1CCN(c2cccc3nc([C@H]4CCC[C@@H](c5ncccc5Cl)N4C)[nH]c23)CC1 and print it.
7.00 to 11.00

Retrieve pIC50 measured for Cc1cccnc1[C@@H]1CCC[C@H](c2nc3ccccc3n2CCc2ccccn2)N1C and print it.
6.00 to 7.00
